% Mortality, Mites (Systemic Insecticidal Activity) for assorted molecules
Tested on: Mites
Test: Cut-Stem Systemic Test (Mites)
Assay type: in vivo
Details: 100 ppm. emulsion, 3 days
Hi! Could you send only the number? It should be in %, unit omitted.

Ask: Given the entry CCCSP(=O)(OCC)SCSC(C)(C)c1ccccc1 (stereo not shown) , report its measured % Mortality, Mites (Systemic Insecticidal Activity).
Result: 90

Ask: Given the entry COP(=S)(OC)SCSC(C)(C)c1ccc(Br)cc1 , report its measured % Mortality, Mites (Systemic Insecticidal Activity).
Result: 100

Ask: Given the entry CCOP(=S)(OCC)SCSC(C)(C)c1ccccc1 , report its measured % Mortality, Mites (Systemic Insecticidal Activity).
Result: 80

====

Tested on: Two-spotted Spider Mite (Tetranychus urticae)
Experiment: E. Two-spotted Spider Mite plant-dip test
Assay type: in vivo
Conditions: 48 h, 100 ppm., 2 days, read-out: Percent Mortality, Two-spotted Spider Mite
mortality at 100 ppm for assorted molecules
Please state the number and follow it with the unit.

Examples with answers:
# MOLECULE, mortality at 100 ppm
records = [
    ("COP(=S)(OC)SCSC(C)(C)c1ccc(Cl)c(Cl)c1 [drawing 21]", "100%"),
    ("COP(=S)(OC)SCSC(C)(C)c1cc(Cl)ccc1Cl [drawing 10]", "100%"),
    ("CCOP(=S)(OCC)SC[S+]([O-])C(C)(C)c1ccccc1 (centres unmarked) [drawing 8]", "100%"),
]

Ask: Given the entry COP(=S)(OC)SCSC(C)(C)c1ccc(C#N)cc1 [drawing 9] , report its measured mortality at 100 ppm.
Result: 100%

Ask: Given the entry CCOP(=S)(OCC)SCSC(C)(CC)c1ccccc1 (centres unmarked) [drawing 14] , report its measured mortality at 100 ppm.
Result: 0%

====

Tested on: Southern armyworm larvae
Assay: Cut-Stem Systemic Test (Southern Armyworm)
Type: in vivo
Conditions: Spodoptera eridania, 72 h; cut-stem, 100 ppm. emulsion; larvae held 3 days; read-out: % Mortality, Southern Armyworms (Systemic Insecticidal Activity)
MEASUREMENT_KIND: mortality at 100 µg/mL (%)
Hi! Could you send only the number? It should be in %, unit omitted.

Examples with answers:
# COMPOUND, UNITS_TEXT, mortality at 100 µg/mL
records = [
    ("COP(=S)(OC)SCSC(C)(C)c1ccc(Br)cc1 [Example 13]", "%", 100),
    ("COP(=O)(SC)SCSC(C)(C)c1ccc(Cl)cc1 (stereo not drawn) [Example 16]", "%", 0),
    ("COP(=S)(OC)SCSC(C)(C)c1ccc(Cl)c(Cl)c1 [Example 11]", "%", 90),
]

Ask: Given the entry CCCSP(=O)(OCC)SCSC(C)(C)c1ccccc1 (stereo not drawn) [Example 12] , report its measured mortality at 100 µg/mL.
Result: 0

Ask: Given the entry CCOP(=S)(OCC)SCSC(C)(C)c1ccc(Cl)c(Cl)c1 [Example 8] , report its measured mortality at 100 µg/mL.
Result: 100

Ask: Given the entry COP(=S)(OC)SCSC(C)(C)c1ccc(Cl)cc1 [Example 7] , report its measured mortality at 100 µg/mL.
Result: 100

====

Tested on: False wireworm larvae (Eleodes suturalis)
Experiment: False Wireworm Control (treated soil, dust on talc)
Assay type: in vivo
Settings: 144 h, 1 lbs./Acre, potting soil, mortality after 6 days, read-out: Percent Control of False Wireworms
MEASUREMENT_KIND: mortality at 1120.85 g/ha (%)
Hi! Could you send only the number? It should be in %, unit omitted.

Examples with answers:
# COMPOUND, MEASUREMENT_KIND, RESULT_VALUE
measured = [
    ("CCOP(=S)(OCC)SCSC(C)c1ccccc1 (stereo not shown)", "mortality at 1120.85 g/ha", 0),
    ("CCOP(=S)(OCC)SCSC(C)(C)c1ccccc1", "mortality at 1120.85 g/ha", 0),
    ("CCOP(=S)(OCC)SC[S+]([O-])C(C)(C)c1ccccc1 (stereo not shown)", "mortality at 1120.85 g/ha", 0),
]

Now for a further compound.
Ask: Requested read-out mortality at 1120.85 g/ha, target or system False wireworm larvae (Eleodes suturalis), entry COP(=S)(OC)SCSC(C)(C)c1ccccc1
Result: 100

====

log10 of LD50 at 336 h for assorted molecules
Test: Mammalian Toxicity Studies (LD50 for Mice)
Set-up: species or system mice (Carworth Farms Nelson, CFI strain)
Details: mouse, in vivo; 14-day observation; corn oil
Would you kindly interpret these values as log10 of LD50 at 336 h expressed in mg/kg?

Examples with answers:
# MOLECULE, RESULT_VALUE
rows = [
    ("CCOP(=S)(OCC)SCSC(C)c1ccccc1 (stereo not drawn)", 1.83),
    ("CCOP(=S)(OCC)SCSC(C)(C)c1ccccc1", 1.85),
    ("COP(=S)(OC)SCSC(C)(C)c1ccccc1", 2.07),
    ("CCOP(=S)(OCC)SC[S+]([O-])C(C)(C)c1ccccc1 (stereo not drawn)", 1.94),
    ("CCOP(=S)(OCC)SCSCc1ccccc1 [reference compound]", 1.83),
]

Now for a further molecule.
Ask: Given the entry CCOP(=S)(OCC)SCSCC [reference compound] , report its measured log10 of LD50 at 336 h.
Result: 0.75

====

Tested on: Two-spotted Spider Mite (Tetranychus urticae)
Experiment: E. Two-spotted Spider Mite plant-dip test
Type: in vivo
Conditions: 48 h, 100 ppm., 2 days, read-out: Percent Mortality, Two-spotted Spider Mite
mortality at 100 ppm for assorted compounds

Examples with answers:
# COMPOUND, mortality at 100 ppm
rows = [
    ("CCOP(=S)(OCC)SCSC(C)(C)c1ccccc1 [drawing 6]", "75%"),
    ("CCOP(=S)(OCC)SCSC(C)(C)c1ccc(Cl)cc1 [drawing 18]", "100%"),
    ("COP(=S)(OC)SCSC(C)(C)c1cccc(Cl)c1Cl [drawing 12]", "0%"),
    ("CCOP(=S)(OCC)SCSC(C)(C)c1cc(Cl)ccc1Cl [drawing 11]", "90%"),
    ("CCCSP(=O)(OCC)SCSC(C)(C)c1ccccc1 (centres unmarked) [drawing 16]", "100%"),
]

Now for a further compound.
Ask: Given the entry COP(=S)(OC)SCSC(C)(C)c1ccc(Cl)cc1 [drawing 22] , report its measured mortality at 100 ppm.
Result: 100%

====

Test system: False wireworm larvae (Eleodes suturalis)
Test: False Wireworm Control (treated soil, dust on talc)
Format: in vivo
Details: 144 h, 10 lbs./Acre, potting soil, mortality after 6 days, read-out: Percent Control of False Wireworms
mortality at 11208.5 g/ha for assorted compounds
Hi! Could you send only the number? It should be in %, unit omitted.

Examples with answers:
# COMPOUND, UNITS_TEXT, RESULT_VALUE
data = [
    ("CCOP(=S)(OCC)SCSC(C)(C)c1ccccc1", "%", 100),
    ("COP(=S)(OC)SCSC(C)(C)c1ccccc1", "%", 100),
    ("CC(C)OP(=S)(OC(C)C)SCSC(C)(C)c1ccccc1", "%", 0),
    ("CCOP(=S)(OCC)SCSC(C)c1ccccc1 (centres unmarked)", "%", 100),
]

Now for a further compound.
Ask: Given the entry CCOP(=S)(OCC)SC[S+]([O-])C(C)(C)c1ccccc1 (centres unmarked) , report its measured mortality at 11208.5 g/ha.
Result: 100

====

Assay: Mammalian Toxicity Studies (LD50 for Rats)
Design: species or system male albino rats (Carworth Farms Nelson strain)
Conditions: rat, in vivo; 14-day observation; corn oil
LD50 at 336 h for assorted compounds
Hi! Could you send only the number? It should be in mg/kg, unit omitted.

Examples with answers:
# COMPOUND, LD50 at 336 h [mg/kg]
rows = [
    ("COP(=S)(OC)SCSC(C)(C)c1ccccc1 [Example 5]", 28),
    ("CCOP(=S)(OCC)SCSC(C)(C)c1ccc(Cl)c(Cl)c1 [Example 8]", 100),
    ("CCOP(=S)(OCC)SCSC(C)(C)c1ccccc1 [Example 2]", 18),
]

Ask: Given the entry CCOP(=S)(OCC)SCSC(C)(C)c1ccc(Cl)cc1 [Example 6] , report its measured LD50 at 336 h.
Result: 79

Ask: Given the entry COP(=S)(OC)SCSC(C)(C)c1ccc(Cl)cc1 [Example 7] , report its measured LD50 at 336 h.
Result: 230

Ask: Given the entry COP(=S)(OC)SCSC(C)(C)c1cc(Cl)ccc1Cl [Example 25] , report its measured LD50 at 336 h.
Result: 800

Ask: Given the entry CCCSP(=O)(OCC)SCSC(C)(C)c1ccccc1 (centres unmarked) [Example 12] , report its measured LD50 at 336 h.
Result: 34

Ask: Given the entry COP(=S)(OC)SCSC(C)(C)c1ccc(Br)cc1 [Example 13] , report its measured LD50 at 336 h.
Result: 280
